experiment_description: Phase I study: plasma and urine pharmacokinetics
Format: in vivo, human
assay_setup: human, plasma, oral, 800 mg, AUC(0‐ t ), plasma; after single dose, Cycle 0 day 1; last sampling time point 72 h; mean (SD); N = 7
measured_quantity: AUC (ng·h/mL)
Kindly answer with a numeric value in ng·h/mL, unit omitted.

Query (compound): CCN(c1cc(-c2ccc(CN3CCOCC3)cc2)cc(C(=O)NCc2c(C)cc(C)[nH]c2=O)c1C)C1CCOCC1 ; field requested: AUC 5990

###

experiment_description: Phase I study: plasma and urine pharmacokinetics
Format: in vivo, human
assay_setup: human, plasma, po, 800 mg
measured_quantity: Cmax (ng/mL)
Kindly answer with a numeric value in ng/mL, unit omitted.

Query (compound): CCN(c1cc(-c2ccc(CN3CCOCC3)cc2)cc(C(=O)NCc2c(C)cc(C)[nH]c2=O)c1C)C1CCOCC1 ; field requested: Cmax 1150

Values from paper PMC7935786
